Test system: PANC-1
protocolDescription: SRB colorimetric assay of cell growth and viability, PANC-1
Assay type: cell-based, human
assaySetup: PANC-1; 48 hours exposure; read-out: LC50 PANC-1
Where a SMILES comes first, the peptide text is derived from it. Bridges are numbered along the chain shown (N, C = ends). [ ]: non-standard residue; d: D form. The star is where a group is joined. Bip = N[C@@H](Cc1ccc(-c2ccccc2)cc1)C(=O)O; d(aIle) = CC[C@H](C)[C@@H](N)C(=O)O; d(aThr) = C[C@@H](O)[C@@H](N)C(=O)O; Hexanoyl(5-Me) = CC(C)CCCC(=O)*; Orn = NCCC[C@H](N)C(=O)O; Dhb = C/C=C(\N)C(=O)O
parameter: CC50 (µM)
Record the value in µM, omitting the unit from your answer.

Measured CC50 of C/C=C1\NC(=O)[C@H](Cc2ccc(-c3ccccc3)cc2)NC(=O)[C@@H](C(C)C)NC(=O)[C@@H]([C@@H](C)CC)NC(=O)[C@H](NC(=O)[C@H](NC(=O)[C@H](CCCN)NC(=O)[C@H]2CCCN2C(=O)[C@H](NC(=O)[C@@H](NC(=O)[C@@H](NC(=O)[C@H](NC(=O)CCCC(C)C)C(C)C)[C@@H](C)O)C(C)C)C(C)C)[C@@H](C)CC)[C@@H](C)OC(=O)[C@H](C(C)C)NC1=O [Compound 86, [Bip^3]-KF] ({Hexanoyl(5-Me)}-[dV]TV[dV][dP][Orn][d(aIle)][d(aThr)][d(aIle)][dV][Bip][Dhb]V; ester 8-C) : 4.77
